Provide the recorded inhibition in vivo at 50 mg/kg for the entries that follow.
- Test system: Mus musculus
- Procedure Summary: In vivo inhibitory activity on the increase of serum GOT induced by D-GalN / LPS (liver injury) in mice at 50 mg/kg peroral administration
- Type: functional
- Test Parameters: route oral
Give bare numbers, in %.

Worked examples, 4 compounds total:
* C/C1=C\CC[C@H](C)C(=O)C[C@@H](C(C)C)C(=O)C1 | 74.6
* CC1=CC(=O)C(=C(C)C)CC2[C@@](C)(O)CC[C@]12O (some centres undefined) | 89.1
* CC(=O)CC[C@H]1[C@@H]2CC(=C(C)C)C(=O)C[C@]12C | 88
* C=C1CC(=O)C(=C(C)C)CC2[C@H]1CC[C@]2(C)O (some centres undefined) | 22.3

Quick one: give me inhibition in vivo at 50 mg/kg for each item below, same order please.
1. CC(C)=C1C/C=C(\C)CC/C=C(\C)CC1=O
2. CC1=CC2(O)O[C@@]3(CC2=C(C)C)[C@@H](C)CC[C@@H]13 (single isomer, unassigned) [CURCUMENOL]
3. C/C1=C\C/C(=C(/C)CO)C(=O)C/C(C)=C/CC1
4. C/C1=C\CC[C@]2(C)O[C@H]2C(=O)c2c(C)coc2C1
5. C=C1CC2(O)O[C@@]3(CC2=C(C)C)[C@@H](C)CC[C@@H]13 (single isomer, unassigned) [ISOCURCUMENOL]

RESULT:
1. 78.1
2. 53.3
3. 21.5
4. 35.4
5. 80.2
